Test system: RXRa DBDmut IVT, anti-RXR (DBD mutation: RXRa K156A/R161A, NR concentration 90 nM)
Protocol Details: PBM binding z-score (relative to random genomic background probes); higher = stronger binding; sequences stand for … in GC…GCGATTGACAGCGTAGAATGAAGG
Measured Metric: PBM binding z-score
Answer with a bare number; do not write a unit.

Worked set:
[[record]]
seq = "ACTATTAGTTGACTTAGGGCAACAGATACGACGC"
measured_metric = "PBM binding z-score"
measured_number = 0.406

[[record]]
seq = "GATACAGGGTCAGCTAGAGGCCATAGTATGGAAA"
measured_metric = "PBM binding z-score"
measured_number = 1.57

[[record]]
seq = "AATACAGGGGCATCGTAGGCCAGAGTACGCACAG"
measured_metric = "PBM binding z-score"
measured_number = 0.834

[[record]]
seq = "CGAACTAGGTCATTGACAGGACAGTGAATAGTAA"
measured_metric = "PBM binding z-score"
measured_number = 2.33

[[record]]
seq = "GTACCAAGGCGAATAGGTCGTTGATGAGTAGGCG"
measured_metric = "PBM binding z-score"
measured_number = -0.465


The reported PBM binding z-score of the sequence `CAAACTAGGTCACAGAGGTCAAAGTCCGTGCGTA` was 3.5
